Biological target: KRas G12S (Homo sapiens, UniProt P01116, G12S)
Construct: Biotinylated KRas (corresponding to amino acids 1-169, produced at Accelegan Inc.); biotin (biotinylated); purchased Accelegan Inc
Sequence (P01116 1-169 isoform P01116-2 G12S): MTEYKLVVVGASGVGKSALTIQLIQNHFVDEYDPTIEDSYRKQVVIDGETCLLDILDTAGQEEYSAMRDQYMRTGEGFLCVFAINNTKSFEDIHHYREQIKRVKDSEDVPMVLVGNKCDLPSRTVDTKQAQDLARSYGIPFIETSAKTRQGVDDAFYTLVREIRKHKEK
Test: KRas binding assay, TR-FRET displacement of Cy5 labelled tracer
Conditions: 60-minute incubation at room temperature, 1% DMSO, pH 7.5
MEASURE NAME: IC50 (nM)
Report only the number, with the unit nM understood.

Worked set:
CCc1c(F)ccc2cc(O)cc(-c3ncc4c(N5C[C@@H]6C[C@@H](C(=O)n7ccc(C)n7)[C@@H]6C5)nc(OC[C@@]56CCCN5C[C@H](F)C6)nc4c3F)c12 | 491
CCc1c(F)ccc2cc(O)cc(-c3ncc4c(N5CCN(C(=O)n6ccc(C)n6)C(CF)C5)nc(OC[C@@]56CCCN5C[C@H](F)C6)nc4c3F)c12 (stereo partly drawn) | 68
CN(CCCC(=O)Nc1ccccn1)c1nc(OC[C@@]23CCCN2C[C@H](F)C3)nc2c(F)c(-c3ccc(F)c4sc(N)c(C#N)c34)c(Cl)cc12 | 13
CON(C)C(=O)CCCN(C)c1nc(OC[C@@]23CCCN2C[C@H](F)C3)nc2c(F)c(-c3ccc(F)c4sc(N)c(C#N)c34)c(Cl)cc12 | 8
N#Cc1c(N)sc2c(F)ccc(-c3c(Cl)cc4c(N5CCCC(C(=O)n6cccn6)CC5)nc(OC[C@@]56CCCN5C[C@H](F)C6)nc4c3F)c12 (stereo partly drawn) | 6

Now let's try a different one.
**Query** Requested read-out IC50, target or system KRas G12S (Homo sapiens, UniProt P01116, G12S), entry `Cc1ccn(C(=O)C2CCN(c3nc(OC[C@@]45CCCN4C[C@H](F)C5)nc4c(F)c(-c5ccc(F)c6sc(N)c(C#N)c56)c(Cl)cc34)CC2)n1`
**Result** 7

###

Molecular target: KRas G12C (Homo sapiens, UniProt P01116, G12C)
Construct: Biotinylated KRas (corresponding to amino acids 1-169, produced at Accelegan Inc.); biotin (biotinylated); purchased Accelegan Inc
Sequence (P01116 1-169 isoform P01116-2 G12C): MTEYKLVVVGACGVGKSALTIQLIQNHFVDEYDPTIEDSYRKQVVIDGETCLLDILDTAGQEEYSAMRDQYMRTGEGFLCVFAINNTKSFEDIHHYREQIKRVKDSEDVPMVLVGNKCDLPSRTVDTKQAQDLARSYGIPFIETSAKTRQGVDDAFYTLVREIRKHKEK
Assay: KRas binding assay, TR-FRET displacement of Cy5 labelled tracer
Conditions: 60-minute incubation at room temperature, 1% DMSO, pH 7.5
Below, each entry is listed alongside its reported IC50.
Report only the number, with the unit nM understood.

Worked set:
CN(CCCC(=O)N(C)c1ccncc1)c1nc(OC[C@@]23CCCN2C[C@H](F)C3)nc2c(F)c(-c3ccc(F)c4sc(N)c(C#N)c34)c(Cl)cc12 | 5
O=C(Oc1cc(F)cc(F)c1)C1CCN(c2nc(OCC34CCCN3CCC4)nc3c(F)c(-c4cccc5cccc(F)c45)ncc23)CC1 | 10700
CCc1c(F)ccc2cc(O)cc(-c3ncc4c(N5CCCCCC(C(=O)n6ccc(C)n6)C5)nc(OC[C@@]56CCCN5C[C@H](F)C6)nc4c3F)c12 (stereo partly drawn) | 5
CCc1c(F)ccc2cc(O)cc(-c3ncc4c(N5CCN(C(=O)n6ccc(C)n6)C6(CC6)C5)nc(OC[C@@]56CCCN5C[C@H](F)C6)nc4c3F)c12 (single isomer, unassigned) | 128
N#Cc1ccccc1OC(=O)C1CCN(c2nc(OCC34CCCN3CCC4)nc3c(F)c(-c4cccc5cccc(F)c45)ncc23)CC1 | 452

**Query** Requested read-out IC50, target or system KRas G12C (Homo sapiens, UniProt P01116, G12C), entry `Cc1ccn(C(=O)C2CCN(c3nc(OCC45CCCN4CCC5)nc4c(F)c(-c5cccc6cccc(F)c56)ncc34)CC2)n1`
**Result** 19600
